Entries and their inhibition at 1 µM values follow.
TEST_TARGET: GST-tagged ROR gamma ligand binding domain (LBD) (Homo sapiens, UniProt P51449)
Construct: purchased Invitrogen
Sequence (P51449 269-508 limits assumed): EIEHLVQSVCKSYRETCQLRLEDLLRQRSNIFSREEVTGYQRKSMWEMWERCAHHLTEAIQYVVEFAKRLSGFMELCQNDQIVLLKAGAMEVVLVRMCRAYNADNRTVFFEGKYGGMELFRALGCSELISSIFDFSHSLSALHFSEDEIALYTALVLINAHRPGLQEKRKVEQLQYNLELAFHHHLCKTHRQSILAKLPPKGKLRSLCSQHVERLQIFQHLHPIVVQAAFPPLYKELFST
PROCEDURE_SUMMARY: TR-FRET assay for ROR gamma (Lantha Screen, co-activator peptide recruitment)
Type: biochemical
CONDITION_DESCRIPTION: read-out: % inhibition at 1 μM; compound concentration 1 μM; TR-FRET ratio 520/495, percent of control
Please state the figure in %; there is no need to write the unit.

Reported inhibition at 1 µM (GST-tagged ROR gamma ligand binding domain (LBD) (Homo sapiens, UniProt P51449)) for entry CCCCOC(=O)c1ccc(-n2nc(Oc3c(Cl)cccc3C(F)(F)F)c3ccccc32)c(F)c1 is 52

Noted inhibition at 1 µM for Cc1cccc(Oc2nn(-c3ccc(C(=O)O)cc3)c3ccccc23)c1 , tested on GST-tagged ROR gamma ligand binding domain (LBD) (Homo sapiens, UniProt P51449): 23.4

Known value: GST-tagged ROR gamma ligand binding domain (LBD) (Homo sapiens, UniProt P51449) inhibition at 1 µM of the compound O=C(O)c1ccc(-n2nc(Oc3c(Cl)cccc3Cl)c3ccccc32)cc1 equals 98.4

###

TEST_TARGET: GST-tagged ROR gamma ligand binding domain (LBD) (Homo sapiens, UniProt P51449)
Construct: purchased Invitrogen
PROCEDURE_SUMMARY: TR-FRET assay for ROR gamma (Lantha Screen, co-activator peptide recruitment)
Assay type: biochemical
CONDITION_DESCRIPTION: read-out: % inhibition at 1 μM; compound concentration 1 μM; TR-FRET ratio 520/495, percent of control
VALUE_TYPE: inhibition at 1 µM
Hi, when you answer, please include the unit after the number. Thanks!

LINE_NOTATION | TEST_TARGET | inhibition at 1 µM
O=C(O)c1ccc(-n2nc(Oc3ccccc3C(F)(F)F)c3ccccc32)cc1 | GST-tagged ROR gamma ligand binding domain (LBD) (Homo sapiens, UniProt P51449) | 96.9%
O=C(O)c1ccc(-n2nc(C(=O)c3c(Cl)cccc3Cl)c3cccc(F)c32)cc1 | GST-tagged ROR gamma ligand binding domain (LBD) (Homo sapiens, UniProt P51449) | 94.6%
O=C(O)c1ccc(-n2nc(C(=O)c3c(Cl)cccc3C(F)(F)F)c3ccccc32)cc1 | GST-tagged ROR gamma ligand binding domain (LBD) (Homo sapiens, UniProt P51449) | 96.9%

Lab note: measured inhibition at 1 µM of O=C(O)c1ccc(-n2cc(C(=O)c3ccccc3Cl)c3ccccc32)c(F)c1 was 95.7%

O=C(O)c1ccc(-n2nc(Oc3c(Cl)cccc3C3CC3)c3cccc(F)c32)c(F)c1 yielded inhibition at 1 µM of 91.4%

Record summary for O=C(O)c1ccc(-n2cc(C(=O)c3c(Cl)cccc3Cl)c3ccc(F)cc32)c(F)c1 : reported inhibition at 1 µM = 95.8%

These data points were gathered from patent US9682977B2.
